Below is a list of entries, each paired with its recorded growth value.
# Test system: SNB-75 CNS
# assay-overview: NCI-60 one-dose screen, 48 h (100 = growth as untreated, 0 = no growth, -100 = all killed)
# run-parameters: 10 µM unless noted
The panel holds about 83,000 compounds, 20% with a hit somewhere; the sample as a whole holds those more often.
Please respond with the number in % and leave the unit unwritten.

compound	growth (%)
COc1ccc(NC2=C(Cl)C(=O)C(C)=C(C)C2=O)cc1OC	126

query: I'd like to know its growth. The compound in question is "Cc1ccc(C(=O)Nc2cccc(C(F)(F)F)c2)cc1Nc1nc(-c2cnccn2)nc2c1cnn2C"
result: 77.4

query: Also need "O=C(N/N=C/c1ccc(Br)s1)c1[nH]c2ccc(Br)cc2c1-c1ccccc1" , thanks.
result: 39.5

query: Consider next the compound "COc1ccc(/C=N/Nc2ccnc3cc(Cl)ccc23)cc1Cl" in the same way.
result: -88.5

query: What do you get for "O=C1Nc2cc(Cl)ccc2/C1=C\c1ccc(OCc2ccc([N+](=O)[O-])cc2)cc1" ?
result: 57.5

query: Quick one: "COc1ccc(/C=N/NC(=O)c2[nH]c3ccc(Br)cc3c2-c2ccccc2)o1"
result: 50.3

query: Next up: "C#Cc1nc(C2=C(C)C(=O)/C(=N/OC(C)=O)C2)cs1"
result: -46.3

The measured values listed here are drawn from PubChem BioAssay (NCI).
